Below, each entry is listed alongside its reported MIC.
Tested on: Mycobacterium tuberculosis
Experiment Notes: Antimycobacterial activity against Mycobacterium tuberculosis H37Rv after 10 to 12 days by serial dilution method
Type: functional

Examples with answers:
Compound: C[C@]12CC[C@H]3[C@@](CC[C@@H]4[C@]3(C)CCC[C@@]4(C)C(=O)O)(CC1=O)C2
Experimental Target: Mycobacterium tuberculosis
Property Label: MIC
Result: 50 µg/mL
--
Compound: NC(=O)c1cnccn1 [PYRAZINAMIDE]
Experimental Target: Mycobacterium tuberculosis
Property Label: MIC
Result: 20 µg/mL
--
Compound: C=C1C[C@]23CC[C@@H]4[C@](C)(CCC[C@@]4(C)C(=O)O)[C@H]2CC[C@]1(O[C@@H]1O[C@H](CO)[C@@H](O)[C@H](O)[C@H]1O[C@@H]1O[C@H](CO)[C@@H](O)[C@H](O)[C@H]1O)C3
Experimental Target: Mycobacterium tuberculosis
Property Label: MIC
Result: 3.75 to 5 µg/mL
--
Compound: C[C@]12CC[C@H]3[C@@](CC[C@@H]4[C@]3(C)CCC[C@@]4(C)C(=O)O)(C/C1=N/NC(=O)c1ccncc1)C2
Experimental Target: Mycobacterium tuberculosis
Property Label: MIC
Result: 10 to 20 µg/mL
--
Compound: NNC(=O)c1ccncc1
Experimental Target: Mycobacterium tuberculosis
Property Label: MIC
Result: 0.1 µg/mL
--
Compound: C=C1C[C@]23CC[C@@H]4[C@](C)(CCC[C@@]4(C)C(=O)O[C@@H]4O[C@H](CO)[C@@H](O)[C@H](O)[C@H]4O)[C@H]2CC[C@]1(O[C@@H]1O[C@H](CO)[C@@H](O)[C@H](O)[C@H]1O[C@@H]1O[C@H](CO)[C@@H](O)[C@H](O)[C@H]1O)C3
Experimental Target: Mycobacterium tuberculosis
Property Label: MIC
Result: 7.5 µg/mL

[ask] Requested read-out: MIC. Entry: "C=C1C[C@]23CC[C@@H]4[C@](C)(CCC[C@@]4(C)C(=O)NNc4ccncc4)[C@H]2CC[C@]1(O[C@@H]1O[C@H](COC(C)=O)[C@@H](OC(C)=O)[C@H](OC(C)=O)[C@H]1O[C@@H]1O[C@H](COC(C)=O)[C@@H](OC(C)=O)[C@H](OC(C)=O)[C@H]1O)C3"
[reply] 5 µg/mL

[ask] Requested read-out: MIC. Entry: "C=C1C[C@]23CC[C@@H]4[C@](C)(CCC[C@@]4(C)C(=O)NNc4cccnc4)[C@H]2CC[C@]1(O[C@@H]1O[C@H](COC(C)=O)[C@@H](OC(C)=O)[C@H](OC(C)=O)[C@H]1O[C@@H]1O[C@H](COC(C)=O)[C@@H](OC(C)=O)[C@H](OC(C)=O)[C@H]1O)C3"
[reply] 10 µg/mL
